Experiment: log P determination (HPLC, calibration with unbranched alkan-2-ones)
Type: physicochemical
Conditions: * LC-MS determination in the acidic range, pH 2.7, 0.1% aqueous formic acid and acetonitrile, linear gradient 10% to 95% acetonitrile
measurement.type: log p

[[record]]
molecule = "Cc1cc(C(F)(F)F)nn1CC(=O)N1CCC(c2nc(C(=O)Oc3ccccc3)cs2)CC1 [compound 44]"
measurement_type = "log p"
result = "3.20*"

[[record]]
molecule = "CCC(OC(=O)c1csc(C2CCN(C(=O)Cn3nc(C(F)(F)F)cc3C)CC2)n1)c1ccc(F)cc1 (stereo not shown) [compound 42]"
measurement_type = "log p"
result = "3.89*"

[[record]]
molecule = "COc1ccc(COC(=O)c2csc(C3CCN(C(=O)Cn4nc(C(F)(F)F)cc4C)CC3)n2)cc1 [compound 19]"
measurement_type = "log p"
result = "3.30*"

[[record]]
molecule = "Cc1cc(C(F)(F)F)nn1CC(=O)N1CCC(c2nc(C(=O)OCc3c(Cl)cccc3Cl)cs2)CC1 [compound 22]"
measurement_type = "log p"
result = "3.94*"

[[record]]
molecule = "O=C(OC1CCCc2ccccc21)c1csc(C2CCN(C(=O)Cn3ccc(C(F)(F)F)n3)CC2)n1 (stereo not shown) [compound 89]"
measurement_type = "log p"
result = "3.68*"

[[record]]
molecule = "Cc1cc(C(F)(F)F)nn1CC(=O)N1CCC(c2nc(C(=O)OCCc3ccc(F)cc3)cs2)CC1 [compound 43]"
measurement_type = "log p"
result = "3.55*"

[[record]]
molecule = "O=C(OCc1ccc(F)cc1)c1csc(C2CCN(C(=O)Cn3ccc(C(F)(F)F)n3)CC2)n1 [compound 95]"
measurement_type = "log p"
result = "3.04*"


----------
Listing: log p of selected compounds
Test: log P determination (HPLC, calibration with unbranched alkan-2-ones)
Format: physicochemical
Conditions: * LC-MS determination in the acidic range at pH 2.7, 0.1% aqueous formic acid and acetonitrile, linear gradient 10% to 95% acetonitrile, reversed-phase C 18
measurement.type: log p

[[record]]
compound = "Cc1c(Cl)c(C(F)(F)F)nn1CC(=O)N1CCC(c2nc(C(=O)OC(C)c3ccc(F)cc3)cs2)CC1 (stereo not shown) [compound 184]"
result = "3.89*"

[[record]]
compound = "Cc1c(Cl)c(C(F)(F)F)nn1CC(=O)N1CCC(c2nc(C(=O)OCCc3ccc(F)cc3)cs2)CC1 [compound 186]"
result = "3.94*"

[[record]]
compound = "Cc1c(Cl)c(C(F)(F)F)nn1CC(=O)N1CCC(c2nc(C(=O)OCc3ccccc3)cs2)CC1 [compound 154]"
result = "3.73*"

[[record]]
compound = "Cc1c(Cl)c(C(F)(F)F)nn1CC(=O)N1CCC(c2nc(C(=O)OC3CCc4ccccc43)cs2)CC1 (stereo not shown) [compound 151]"
result = "4.17*"

[[record]]
compound = "Cc1c(Cl)c(C(F)(F)F)nn1CC(=O)N1CCC(c2nc(C(=O)OCc3ccc(F)cc3)cs2)CC1 [compound 155]"
result = "3.73*"

[[record]]
compound = "Cc1c(Cl)c(C(F)(F)F)nn1CC(=O)N1CCC(c2nc(C(=O)OCc3ccncc3)cs2)CC1 [compound 217]"
result = "1.82*"

[[record]]
compound = "Cc1c(Cl)c(C(F)(F)F)nn1CC(=O)N1CCC(c2nc(C(=O)OCc3cccs3)cs2)CC1 [compound 218]"
result = "3.58*"


----------
Experiment: log P determination (HPLC, calibration with unbranched alkan-2-ones)
Assay type: physicochemical
Conditions: * LC-MS determination in the acidic range at pH 2.7, mobile phases 0.1% aqueous formic acid and acetonitrile (0.1% formic acid), linear gradient 10% to 95% acetonitrile; reversed-phase C 18 HPLC
Experimental: The calibration is carried out using unbranched alkan-2-ones (having 3 to 16 carbon atoms) with known log P values (determination of the log P values by the retention times using linear interpolation between two successive alkanones). The lambda-maX values were determined in the maxima of the chromatographic signals using the UV spectra from 200 nm to 400 nm.
measurement.type: log p

[[record]]
molecule = "Cc1cc(C(F)(F)F)nn1CC(=O)N1CCC(c2nc(C(=O)Oc3cccc4c3CCCC4)cs2)CC1 [compound 792]"
measurement_type = "log p"
result = "4.30*"

[[record]]
molecule = "Cc1cc(C)n(C(C)(C)C(=O)N2CCC(c3nc(C(=O)OC4CC(C)CCC4C(C)C)cs3)CC2)n1 (centres unmarked)"
measurement_type = "log p"
result = "5.51*"

[[record]]
molecule = "Cc1cc(C(F)(F)F)nn1CC(=O)N1CCC(c2nc(C(=O)Oc3ccc4ncccc4c3)cs2)CC1"
measurement_type = "log p"
result = "2.37*"

[[record]]
molecule = "Cc1cc(C(F)(F)F)nn1CC(=O)N1CCC(c2nc(C(=O)OCc3ccc(OC(F)(F)F)cc3)cs2)CC1"
measurement_type = "log p"
result = "3.99*"

[[record]]
molecule = "C=CC(CCC)OC(=O)c1csc(C2CCN(C(=O)C(C)(C)n3nc(C)cc3C)CC2)n1 (centres unmarked)"
measurement_type = "log p"
result = "3.78*"

